- System: NCI-H69 (Small Cell Lung Carcinoma)
- test protocol: combination Emax (second highest fraction inhibited in the dose matrix, 72 h); higher = more inhibition; extreme values may be limits of the assay
Give YES when the value for combination Emax is at least 0.8. Give NO when it is less.

Please review the following examples before continuing.
CC1(C)CCC(CN2CCN(c3ccc(C(=O)NS(=O)(=O)c4ccc(NCC5CCOCC5)c([N+](=O)[O-])c4)c(Oc4cnc5[nH]ccc5c4)c3)CC2)=C(c2ccc(Cl)cc2)C1 [Venetoclax] + C[C@@H](Nc1cc(F)cc(F)c1)c1cc(C(=O)N(C)C)cc2c(=O)cc(N3CCOCC3)oc12 [AZD8186] (first compound max 1 µM, 7x7, partner max 3 µM): NO
Cc1c2c(nn1C)CSCc1cc(n(C)n1)CSc1cc(c3ccccc3c1)OCCCc1c(C(=O)O)n(C)c3c-2c(Cl)ccc13 [AZD5991] + C[C@@H](Nc1cc(F)cc(F)c1)c1cc(C(=O)N(C)C)cc2c(=O)cc(N3CCOCC3)oc12 [AZD8186] (first compound max 1 µM, 7x7, partner max 3 µM): NO
CC(=O)Nc1cccc(-n2c(=O)n(C3CC3)c(=O)c3c(Nc4ccc(I)cc4F)n(C)c(=O)c(C)c32)c1 [Trametinib] + Cc1nc(-c2cn3c(n2)-c2ccc(-c4cnn(C(C)(C)C(N)=O)c4)cc2OCC3)n(C(C)C)n1 [Taselisib] (first compound max 1 µM, 7x7, partner max 10 µM): NO
NC1(C(=O)N[C@@H](CCO)c2ccc(Cl)cc2)CCN(c2ncnc3[nH]ccc23)CC1 [Capivasertib] + CC(=O)c1c(C)c2cnc(Nc3ccc(N4CCNCC4)cn3)nc2n(C2CCCC2)c1=O [Palbociclib] (first compound max 10 µM, 7x7, partner max 10 µM): NO
CS(=O)(=O)CCNCc1ccc(-c2ccc3ncnc(Nc4ccc(OCc5cccc(F)c5)c(Cl)c4)c3c2)o1 [Lapatinib] + C[C@@H](Oc1cc(-c2cnn(C3CCNCC3)c2)cnc1N)c1c(Cl)ccc(F)c1Cl [Crizotinib] (first compound max 10 µM, 7x7, partner max 10 µM): YES

Please look at the following compound next.
Prompt: Check this compound for combination Emax at or above 0.8: CN(C)CCCOc1ccc(-c2ccc3ncc4c(c3c2)n(C2CCOCC2)c(=O)n4C)cn1 [AZD0156] + O=C(c1cc(Cc2n[nH]c(=O)c3ccccc23)ccc1F)N1CCN(C(=O)C2CC2)CC1 [Olaparib] (first compound max 3 µM, partner max 3 µM)
Response: NO

The origin of these recorded values is the supplement of paper PMC11061612.
